Molecular target: Cannabinoid receptor 1 (Mus musculus, UniProt P47746)
We label by threshold. Values of Ki strictly beneath 3000 nM are true (1). Values of 3000 nM and up are false (0).

Example entries and their recorded answers appear below.
{"Molecule": "CCCCC/C=C\\CC/C=C/C=C/C(=O)N1CCCCC1", "Study target": "Cannabinoid receptor 1 (Mus musculus, UniProt P47746)", "Label value": "true (1)"}
{"Molecule": "CCCCCCCCC/C=C/C=C/C(=O)N1CCCCC1", "Study target": "Cannabinoid receptor 1 (Mus musculus, UniProt P47746)", "Label value": "false (0)"}
{"Molecule": "C=CC1OC1/C=C/C#CC#CC#CC (stereo unspecified)", "Study target": "Cannabinoid receptor 1 (Mus musculus, UniProt P47746)", "Label value": "false (0)"}
{"Molecule": "CCCCC/C=C\\CC/C=C/C=C/C(=O)NCC(C)C", "Study target": "Cannabinoid receptor 1 (Mus musculus, UniProt P47746)", "Label value": "true (1)"}

Threshold test, Ki < 3000 nM: CCCCCCCCC/C=C/C=C/C(=O)NCC(C)C
true (1)

Confirm or reject: Ki of O=C(/C=C/C=C/C=C/c1cccs1)N1C=CCCC1 lies strictly below 3000 nM
false (0)

====

Target: Cannabinoid receptor 2 (Mus musculus)
Assay: Displacement of [3H]-CP-55940 from cannabinoid CB2 receptor in CD1 mouse spleen membranes after 1 hr by liquid scintillation counting
Type: cell membranes, Membrane
Property measured: log10(Ki) (log10 of the value in µM)
The common logarithm of Ki in µM is what is listed.

Recorded log10(Ki), per entry:
{"Test smiles": "CC(C)CCNC(=O)/C=C/C=C/C=C/c1cccs1", "Study target": "Cannabinoid receptor 2 (Mus musculus)", "Reading": 0.70}
{"Test smiles": "O=C(/C=C/C=C/C=C/c1cccs1)N1CCCCC1", "Study target": "Cannabinoid receptor 2 (Mus musculus)", "Reading": 0.09}
{"Test smiles": "O=C(/C=C/C=C/C=C/c1cccs1)N1C=CCCC1", "Study target": "Cannabinoid receptor 2 (Mus musculus)", "Reading": 1.13}
{"Test smiles": "COc1cc([C@@H]2Oc3c(OC)cc(/C=C/C=O)cc3[C@H]2COC(=O)CC(C)C)ccc1O", "Study target": "Cannabinoid receptor 2 (Mus musculus)", "Reading": 0.62}

For every record below, what is its log10(Ki)?
1. CCCCCCCCC/C=C/C=C/C(=O)N1CCCCC1
2. CCCCC/C=C\CC/C=C/C=C/C(=O)N1CCCCC1
3. CC(C)CNC(=O)/C=C/C=C/C=C/c1cccs1
4. CCCCC/C=C\CC/C=C/C=C/C(=O)NCC(C)C
5. CC(C)CC(=O)OC/C=C\CCNC(=O)/C=C/C=C/C=C/c1cccs1

1: 1.38; 2: -0.80; 3: 0.92; 4: -0.26; 5: 1.01

====

The listing below reports pKi for molecules tested on Mu-type opioid receptor (Mus musculus).
Answers are plain numbers, as −log10 of the molar value.

{"Test smiles": "CCCCC/C=C\\CC/C=C/C=C/C(=O)N1CCCCC1", "pKi": 5.13}

List pKi for every entry below, keeping the order given.
1. CCCCC/C=C\CC/C=C/C=C/C(=O)NCC(C)C
2. CC(C)CCNC(=O)/C=C/C=C/C=C/c1cccs1
3. COc1cc([C@@H]2Oc3c(OC)cc(/C=C/C=O)cc3[C@H]2COC(=O)CC(C)C)ccc1O

5.12
5.09
5.05

====

Please respond with reported Ki for every item in the list.
Molecular target: Cannabinoid receptor 1 (Mus musculus, UniProt P47746)
Give bare numbers, in nM.

{"Test smiles": "CCCCCCC/C=C/C=C/C(=O)NCC(C)C", "Property measured": "Ki", "Reading": 2600}
{"Test smiles": "CC(C)CC(=O)OC/C=C\\CCNC(=O)/C=C/C=C/C=C/c1cccs1", "Property measured": "Ki", "Reading": 5600}
{"Test smiles": "CC(C)CCNC(=O)/C=C/C=C/C=C/c1cccs1", "Property measured": "Ki", "Reading": 2200}
{"Test smiles": "CC(C)CNC(=O)/C=C/C=C/C=C/c1cccs1", "Property measured": "Ki", "Reading": 8800}

Consider the record given below.
Lab note: record Ki of COc1cc([C@@H]2Oc3c(OC)cc(/C=C/C=O)cc3[C@H]2COC(=O)CC(C)C)ccc1O tested on Cannabinoid receptor 1 (Mus musculus, UniProt P47746).
2700
